Molecular target: PAD4 enzyme (Homo sapiens, UniProt Q9UM07)
Construct: PAD4 enzyme was diluted to 30 nM in Assay Buffer
Sequence (Q9UM07 whole entry): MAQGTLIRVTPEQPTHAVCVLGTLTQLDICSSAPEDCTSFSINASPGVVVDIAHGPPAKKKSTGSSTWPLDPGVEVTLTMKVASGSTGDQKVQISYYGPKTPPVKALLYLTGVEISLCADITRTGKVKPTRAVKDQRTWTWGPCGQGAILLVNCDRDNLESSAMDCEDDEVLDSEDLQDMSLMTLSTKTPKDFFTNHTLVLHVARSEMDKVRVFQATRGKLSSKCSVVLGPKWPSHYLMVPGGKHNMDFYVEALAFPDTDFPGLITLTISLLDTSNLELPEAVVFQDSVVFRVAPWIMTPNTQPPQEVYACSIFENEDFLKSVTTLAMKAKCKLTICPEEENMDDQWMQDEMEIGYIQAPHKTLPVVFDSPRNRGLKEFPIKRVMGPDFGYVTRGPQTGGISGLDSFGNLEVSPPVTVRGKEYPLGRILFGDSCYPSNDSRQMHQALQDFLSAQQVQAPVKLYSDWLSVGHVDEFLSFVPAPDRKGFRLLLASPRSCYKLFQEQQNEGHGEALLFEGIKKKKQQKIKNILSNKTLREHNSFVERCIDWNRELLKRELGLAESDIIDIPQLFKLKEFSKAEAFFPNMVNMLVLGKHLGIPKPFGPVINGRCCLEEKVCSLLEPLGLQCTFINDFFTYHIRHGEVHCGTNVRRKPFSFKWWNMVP
Experiment: In-vitro measurement for enzymatic PAD4 citrullination inhibition activity (ammonia release)
Type: biochemical
Conditions: read-out: IC50 of inhibition enzymatic activity of PAD4 (Colorimetric assays, Nature Chemical Biology, 2015, 11: 189-191)
reported property: IC50

Consider the worked cases shown below.
[
  {
    "compound": "COc1cc(C(=O)N2C[C@H](N)CC[C@@H]2C)cc2nc(-c3cc4[se]c(-c5ccccn5)nc4n3CC3CC3)n(C)c12",
    "reported property": "IC50",
    "result": "100 to 500 nM"
  },
  {
    "compound": "COc1ccccc1-c1cc2c(cc(-c3nc4cc(C(=O)N5C[C@H](N)C[C@@H](F)C5)cc(OC)c4n3C)n2CC2CC2)[se]1",
    "reported property": "IC50",
    "result": "100 to 500 nM"
  },
  {
    "compound": "COc1cc(C(=O)N2C[C@H](N)C[C@@H](F)C2)cc2nc(-c3cc4cc[se]c4n3CC3CC3)n(C)c12",
    "reported property": "IC50",
    "result": "50 to 100 nM"
  }
]

Input: Item under review: COc1cc(C(=O)N2C[C@H]3CC[C@@H]2[C@@H]3N)cc2nc(-c3cc4[se]c(C)nc4n3CC3CCC3)n(C)c12 . Reported IC50?
Output: ≤ 50 nM

Source listed as patent US20260193272A1.
